Source: the RNAGym collection of RNA variant scans (doi:10.1126/science.aae0568)

Each record here notes measured yeast fitness.
B1: tRNA (parent)
chain: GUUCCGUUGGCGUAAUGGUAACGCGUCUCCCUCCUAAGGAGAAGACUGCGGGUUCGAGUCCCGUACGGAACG

- Variants of: B1
- ASSAY METHOD TEXT: yeast fitness relative to wild type (ratio to wild type); higher = fitter; tRNA-Arg(CCU), competitive growth, 37 C, YPD
This sample holds only a part of the variants without activity.
Give your answer as a number; write no unit.

Consider the following illustrative entries.
Requested field: yeast fitness. Item: GUUCCGUUGGCGUAAUGGUAACGCGUCUCCCUCCUAUGGAGAAGACUGCGGGUUCGCGUCCCGUACGGAACG [A37U A57C]
0.578

Consider the variant shown here: GGUCCGUUGGCGUAAUGGUAACGAGUCUCCCUCCUAAGGAGAAGAAUGCGGGUUCGAGUCCCGUACGGACCG [U2G C24A C46A A70C] What is its recorded yeast fitness?
1.01

Quick check: yeast fitness of GUUCCGUUGGCGUAAUGGUAACGCGUUUCCCUUCUAAGGCGAAGACUGCGGGUUAGAGUCCCGUGCGGAACG [C27U C33U A40C C55A A65G] ?
0.503

What does the data say about its yeast fitness? Entry: GUUACGUUGGCGUAAUGAUAACGCCUCUCCCUCCUAAGGAGAAGACUGCGGGUUCGAGUCCCGUACGGAACG [C4A G18A G25C]
0.515

Give the measured yeast fitness of GUUUCGUUGGCGUAAAGGUUACGCGUCUCCCUCCCAAGCAGCAGACUACGGGUUCGAGUCCCGUACGGAACG [C4U U16A A20U U35C G39C A42C G48A] .
0.582

State the recorded yeast fitness for this entry: GUUCCGUUGGCAUAAUGGGAACGCGUCUCCCUCCCAAGGUGAAGACUGCGGGUUCGAGUCCCGUACGGAACG [G12A U19G U35C A40U]
0.521

Here is the next item to consider.
Request the reported yeast fitness associated with GUUCCGUUGGCGUAAUGGUUACGCGUCUCCCUCCUAAGGAGUAGACUGCGGGUUCGAGACCCGUACGGAACG [A20U A42U U59A]
0.59
